Molecular target: Voltage-gated potassium channel subunit beta-2 (Rattus norvegicus) (UniProt P62483)
Sequence (P62483 whole entry, looked up): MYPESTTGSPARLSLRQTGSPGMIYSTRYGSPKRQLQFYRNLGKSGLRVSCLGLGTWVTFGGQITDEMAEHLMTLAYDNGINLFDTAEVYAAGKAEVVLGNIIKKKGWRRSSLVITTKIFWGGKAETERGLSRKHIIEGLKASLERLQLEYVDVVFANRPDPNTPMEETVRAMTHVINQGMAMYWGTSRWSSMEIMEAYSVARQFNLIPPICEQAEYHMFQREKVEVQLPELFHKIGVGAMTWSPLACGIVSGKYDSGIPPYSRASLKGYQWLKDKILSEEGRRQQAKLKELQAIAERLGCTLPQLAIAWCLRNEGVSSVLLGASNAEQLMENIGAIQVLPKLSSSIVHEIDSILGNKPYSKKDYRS
Assay: KvBeta enzyme negative modulators, primary screen, biochemical, NADPH fluorescence (AID 622);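 note: slope of raw intensity against log time taken from 70 to 1610 s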
Conditions: recombinant KvBeta, 4-cyanobenzaldehyde reduction, at 10 µM, stronger effect = higher value
The source made the active and inactive calls.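 Rule for the calls: active = fluorescence slope higher than the sample average by over 3 SD (cut at about -0.22 in these data, passing the limit was not always enough); inactive = the rest.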
Known fluorescence slope of a selection of molecules

Check out these entries, answers already filled in.
{"molecule": "COc1cccc(COc2nc3c(c(=O)n(C)c(=O)n3C)n2C)c1", "fluorescence slope": "-0.325 (inactive)"}
{"molecule": "Cc1cc(C)cc(CC2CC(=O)N(c3cc(C)on3)C2=O)c1 (stereo unspecified)", "fluorescence slope": "-0.517 (inactive)"}
{"molecule": "Cc1ccc(S(=O)(=O)N2CCN(c3nc(C)c4c(c3C#N)CC(C)(C)OC4)CC2)cc1", "fluorescence slope": "-0.471 (inactive)"}
{"molecule": "CC(C)(C)n1nnc(CCc2nnn(C(C)(C)C)n2)n1", "fluorescence slope": "-0.44 (inactive)"}
{"molecule": "CC12CCC(C(=O)N(CCC#N)CCC#N)(CC1=O)C2(C)C (stereo unspecified)", "fluorescence slope": "-0.505 (inactive)"}

// below: fluorescence slope requested for another molecule
Data request: For O=C(c1ccco1)N1CCN(c2ncnc3c2[nH]c2ccccc23)CC1 , what is its reported fluorescence slope?
Data returned: -0.359 (inactive)

###

We begin with a simple list: items and their reported slope.
Target: Alpha-2C adrenergic receptor (Homo sapiens)
Assay: modulators of alpha2C/GIRK thallium flux, primary screen, cell-based, HEK293 alpha2C/GIRK1/2 (AID 624);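 note: slope of fluorescence ratio to pre-addition baseline per second over 15 to 24 s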
Settings: thallium flux BTC fluorescence, at 10 µM, actives lie on both sides
Format: numeric value only, no unit, no commentary.

Data request: Could you share which slope value was measured for COc1cc(C2C(C(=O)c3cccs3)=C(O)C(=O)N2c2cc(C)on2)ccc1O (stereo unspecified) ?
Data returned: 0.00517

Data request: Another: CCOC(=O)C1CCCN(c2nc3ccccc3nc2C(C#N)C(=O)OCCOC)C1 (stereo unspecified)
Data returned: 0.0042

Data request: Follow-up entry: O=C(CSc1nnc(-c2ccco2)c(-c2ccco2)n1)Nc1ccccc1
Data returned: 0.00359

Data request: Next record, please: Cc1nc2c(c(=O)n1CC1CCCO1)c1nc3ccccc3nc1n2Cc1ccc2c(c1)OCO2 (stereo unspecified)
Data returned: 0.00645

Data request: Input COc1ccc(OC)c(C2NC(=O)c3sc(=S)n(-c4ccccc4)c3N2)c1 (stereo unspecified)
Data returned: 0.00525

###

Experiment: inhibitors of Sendai virus-induced IRF3 signaling, primary screen, TLR/RLR signaling modifier project, cell-based, Sendai virus stimulus, luciferase, 10K MLSCN set (AID 602276);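 note: firefly luciferase from ISG56 promoter only with Renilla not read in this screen; 0% = Sendai virus plus DMSO and 100% = medium plus DMSO without virus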
Conditions: HEK293 RL24 IRF3 luciferase reporter, at 10 µM, stronger effect = higher value
inhibition reference
# unit: % | format: bare number

{"molecule": "CCCCC[C@H](O)/C=C/[C@@H]1[C@@H](CCCCCCC(=O)O)[C@@H](O)C[C@H]1O", "inhibition [%]": 11.4}
{"molecule": "CC(C)NCC(O)COc1cccc2[nH]ccc12 (stereo not given)", "inhibition [%]": -0.334}

Data request: Return reported inhibition; argument: CC1C/C=C/C=C/C=C/C=C/C(O[C@@H]2O[C@H](C)[C@@H](O)[C@H](N)[C@@H]2O)CC2OC(O)(CC(O)CC3OC3/C=C/C(=O)O1)CC(O)C2C(=O)O (stereo not given in full)
Data returned: 7.33

Data request: Query CCCC(=O)N(Cc1cc2ccccc2[nH]c1=O)c1ccccc1OC next
Data returned: 12

Data request: How about CNCCCN1c2ccccc2CCc2ccccc21 ?
Data returned: 0.658

###

Target: Alpha-2C adrenergic receptor (Homo sapiens) (UniProt P18825)
Sequence (P18825 whole entry, looked up): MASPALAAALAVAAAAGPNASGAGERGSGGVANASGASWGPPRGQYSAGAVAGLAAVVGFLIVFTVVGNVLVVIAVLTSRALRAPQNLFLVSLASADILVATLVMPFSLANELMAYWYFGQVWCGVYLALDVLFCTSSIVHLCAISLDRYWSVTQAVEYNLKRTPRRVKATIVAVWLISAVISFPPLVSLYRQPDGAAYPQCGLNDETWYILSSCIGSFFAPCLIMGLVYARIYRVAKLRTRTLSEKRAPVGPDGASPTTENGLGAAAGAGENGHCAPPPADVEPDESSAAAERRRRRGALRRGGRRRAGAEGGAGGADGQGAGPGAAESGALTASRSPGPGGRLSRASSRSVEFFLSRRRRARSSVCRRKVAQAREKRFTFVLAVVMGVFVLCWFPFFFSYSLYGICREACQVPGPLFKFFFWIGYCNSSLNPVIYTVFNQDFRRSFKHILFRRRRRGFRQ
Assay: modulators of alpha2C/GIRK thallium flux, primary screen, cell-based, HEK293 alpha2C/GIRK1/2 (AID 624);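 note: slope of fluorescence ratio to pre-addition baseline per second over 15 to 24 s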
Conditions: thallium flux BTC fluorescence, at 10 µM, actives lie on both sides
quantityKind: slope
Lab note: record the figure alone, no unit after it.

{"compound": "CCCCOc1ccc(OCCCN2CCOCC2)cc1", "slope": 0.00401}
{"compound": "O=C(O)Cc1cc(I)c(Oc2ccc(O)c(I)c2)c(I)c1", "slope": 0.00612}
{"compound": "CCOC(=O)c1c(C)n(C)c2ccc(OC)c(NC(=O)CCN3CCSCC3)c12", "slope": 0.00572}

Data request: Can you share its slope? I mean this compound: C=CCN(C(=O)CCC(=O)O)C1CC(=O)N(c2ccc(OCCC)cc2)C1=O (stereo unspecified)
Data returned: 0.00464

Data request: Same lookup for CSc1nc(NC(C)=O)nc(C)c1Cl , please.
Data returned: 0.00457

Data request: Now consider Cc1ccc(OCC(=O)NCC(=O)n2nc(C)cc2C)cc1 .
Data returned: 0.00489

###

Assay: inhibitors of TNFa-induced NFkB p65 translocation, primary screen, imaging, HUVEC, MLSMR starter and 10KST1 sets (AID 438);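 note: compound added about 3h40 before a 20 min TNFalpha stimulation; signal is the nuclear over cytoplasmic p65 intensity ratio per well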
Settings: HUVEC TNFa-induced p65 nuclear translocation; at 2 µM, stronger effect = higher value, 0% TNFa-plus-vehicle, 100% no-TNFa wells
quantityKind: inhibition (%)
The response must be a number in % with no trailing unit.

{"compound": "CCOC(=O)C1=C(N)c2ccccc2CC1C(C)C (centres undefined)", "inhibition (%)": 9}
{"compound": "c1ccc(OCc2nn3c(-c4ccco4)nnc3s2)cc1", "inhibition (%)": 3.2}
{"compound": "CSc1nc(N)c(C#N)c(-c2ccccc2Cl)c1C#N", "inhibition (%)": -5.2}
{"compound": "CCOC(=O)c1[nH]c2ccc(OC)cc2c1NC(=O)CCN1CCC(C)CC1", "inhibition (%)": -0.3}

Data request: Record request: inhibition value, item Cc1ccc2[nH]c3c(c2c1)CN(C(=O)CN1CCCc2ccccc21)CC3
Data returned: -8.1

Data request: // same read-out, input: Cc1cc(=O)oc(C)c1C(=O)N1CCN(Cc2ccc3c(c2)OCO3)CC1
Data returned: -8.4

Data request: And Cc1occc(=O)c1OC(=O)Nc1ccccc1 ?
Data returned: -8.6

Data request: Cn1nnnc1-c1cc(Br)ccc1NC(=O)c1ccccc1 ?
Data returned: -1.8

Data request: Repeat with CC(=O)c1cc2c(=O)c3ccccc3oc2nc1C
Data returned: -7.4

Data request: Then this compound: Cc1ccc2nc(NCc3ccccc3)[nH]c2c1
Data returned: -2.3

Data request: Can you handle C=CCNc1nc(-c2ccc(O)c(C(N)=O)c2)cs1 next?
Data returned: -7.7

###

Biological target: Voltage-gated potassium channel subunit beta-2 (Rattus norvegicus) (UniProt P62483)
Test: KvBeta enzyme negative modulators, primary screen, biochemical, NADPH fluorescence (AID 622);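 note: slope of raw intensity against log time taken from 70 to 1610 s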
Details: recombinant KvBeta, 4-cyanobenzaldehyde reduction, at 10 µM, stronger effect = higher value
quantityKind: fluorescence slope
// keep it numeric: no unit symbol after the value

{"molecule": "C=CCNc1nc(-c2cccc(OC)c2O)nc2ccccc12", "fluorescence slope": -0.415}
{"molecule": "CC1(C)Cc2c(C#N)c(N3CCOCC3)nc(-c3ccccc3)c2CO1", "fluorescence slope": -0.424}
{"molecule": "NS(=O)(=O)c1ccc(C(=O)O)cc1", "fluorescence slope": -0.499}
{"molecule": "COc1ccc(Nc2nc(Nc3ccc(OC)cc3)nc(-n3[nH]c(=O)c(C)c3C)n2)cc1", "fluorescence slope": -0.474}
{"molecule": "Cc1ccc(CC2CC(=O)N(c3ccc4c(c3)OCCO4)C2=O)cc1 (stereo unspecified)", "fluorescence slope": -0.513}

Data request: // returns reported fluorescence slope for input Cc1ccc(S(=O)(=O)NC(=O)NCc2ccc3c(c2)OCO3)cc1
Data returned: -0.485

Data request: Lookup COc1cc(C)nc(Oc2ccc(=O)n(C)n2)n1
Data returned: -0.38

Data request: And then CCN(CC)S(=O)(=O)c1cccc2c(N(C)C)cccc12 , what is it?
Data returned: -0.177

Data request: // repeat for COc1ccc(-c2cc3nc4n(c(=O)c3s2)CCOC4)cc1 and report
Data returned: -0.185

Data request: Here is the next molecule: N=c1c2c(-c3ccccc3)c(-c3ccccc3)n(Cc3ccccc3)c2ncn1CCCn1ccnc1
Data returned: -0.292

Data request: Same again, this time with CCOC(=O)CC(=O)CSc1nc(N)c(C#N)c(-c2ccc(F)cc2)c1C#N
Data returned: -0.366

###

Experiment: DUSP6 inhibitors restoring Erk phosphorylation by chemical complementation, primary imaging in DUSP6-transfected HeLa (AID 609)
Conditions: HeLa MKP-3 transfected, phospho-Erk imaging KS statistic; measured here: cell density z-score; at 10 µM; cells stimulated with TPA for 15 min
Returns yes if the recorded z-score is greater than or equal to -0.5, and no otherwise.

{"molecule": "COc1cccc(-c2nc(N3CCCCC3)c3ccccc3n2)c1O", "category": "yes"}

Data request: Quick check, z-score >= -0.5? O=C(O)c1c[nH]c2ccc(S(=O)(=O)N3CCOCC3)cc12
Data returned: yes

Data request: Try this molecule next: CCOc1ccc(C2C(C(=O)c3ccc(C)o3)=C(O)C(=O)N2CCN2CCOCC2)cc1OC (stereo unspecified)
Data returned: yes
